- Test system: Inhibin beta A chain (activin A)
- assay summary: INHBA (activin A) binders on microarrays, primary screen, biochemical, small-molecule microarray, 635 nm fluorescence scan (AID 1107);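 also: mouse activin A protein probed at 4.33 µg/mL on printed slides; score merges bound-protein fluorescence near 667 nm with spot signal-to-noise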
- reported conditions: small-molecule microarray binding, higher = more signal
Below is a list of entries, each paired with its recorded composite z-score value.
quantity kind: composite z-score

molecule | experimental system | quantity kind | endpoint result
C=CCN1C(=O)[C@@]2(O[C@@H](CCO)[C@H]([Si](C)(C)c3ccc(OC)cc3)[C@H]2C)c2cc(NC(=O)c3ccc(OC)cc3)ccc21 | Inhibin beta A chain (activin A) | composite z-score | 1.32
C=C(/C(=C/C[C@@H](OC(C)=O)c1ccc(OCCO)cc1)c1cnc2ccccc2c1)C(C)C | Inhibin beta A chain (activin A) | composite z-score | 1.5
Cc1ccc(C(C)CC(O)C2C=CC3C(=O)N(c4ccccc4)C(=O)C3N2Nc2ccc([N+](=O)[O-])cc2)o1 (stereo not drawn) | Inhibin beta A chain (activin A) | composite z-score | 0.77
COC(=O)[C@@]1(Cc2ccccc2)[C@H]2c3cc(C(=O)N4CCCC4)n(Cc4nc5ccccc5[nH]4)c3C[C@H]2CN1C(=O)c1ccccc1 | Inhibin beta A chain (activin A) | composite z-score | 0.831
O=C(c1ccccc1)N1Cc2ccccc2[C@@H]2OC(c3ccc(OCCCO)cc3)=N[C@]2(Cc2ccccc2)C1=O | Inhibin beta A chain (activin A) | composite z-score | 0.3
CCCC[C@@H]1C[C@H]1[C@@H](NC(=O)c1ccco1)c1ccc(C(=O)OC)cc1 | Inhibin beta A chain (activin A) | composite z-score | 0.807
CCCC[C@H]1OB(O)C[C@H]2C1=C(COc1ccccc1)C[C@H]1C(=O)N(C)C(=O)[C@H]12 | Inhibin beta A chain (activin A) | composite z-score | 0.741
COc1ccc([C@H]2C[C@H]3C(Br)=C[C@@H]2C(=O)[C@]32CO2)cc1 | Inhibin beta A chain (activin A) | composite z-score | 1.52

----------
Below is a list of entries, each paired with its recorded composite z-score value.
- experimental system: Albumin (Bos taurus)
- assay summary: bovine serum albumin binders on microarray, profiling panel, artefact control for SMM control protein annotation, biochemical, small-molecule microarray, Alexa647 label, 635/667 nm fluorescence (AID 1118);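 also: score merges 667 nm emission intensity and signal-to-noise per printed compound spot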
- reported conditions: BSA-A647 binding, fluorescence 635 nm, higher = more signal

compound | composite z-score
COC(=O)[C@@]1(Cc2ccccc2)[C@H]2c3cc(C(=O)N(C)C)n(CCSCCO)c3C[C@H]2CN1C(=O)c1ccccc1 | 0.569
C=CCNC(=O)[C@H]1[C@@H]2C(=O)O[C@@H](c3ccccc3)[C@@H](c3ccccc3)N2[C@@H](c2ccc(OCCO)cc2)[C@]12C(=O)Nc1ccc(C#CC3=CCCCC3)cc12 | 0.17
CC1CC/C=C\[C@H]2OC34C=CCN(c5ccc(Cl)cc5)C(=O)[C@H]3N(CCO)C(=O)[C@]4(C)C2C(=O)O1 (stereo partly drawn) | -0.0427

----------
- Tested on: Neuregulin-1 EGF-like domain
- assay summary: binders of neuregulin-1 EGF-like domain, primary screen, biochemical, small-molecule microarray, 635 nm fluorescence (AID 1081);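 also: binding of the protein to compounds printed on small-molecule microarray slides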
- reported conditions: small-molecule microarray binding, higher = more signal
Below is a list of entries, each paired with its recorded composite z-score value.

molecule | composite z-score
O=C1NC(=O)C2C1C=CC(C(O)Cc1ccccc1)N2Nc1ccc(Cl)cc1Cl (configuration not stated) | 0.371
O=C1O[C@H](c2ccccc2)[C@H](c2ccccc2)N2[C@H]1[C@@H](C(=O)Nc1nc3ccccc3s1)[C@]1(C(=O)Nc3ccc(C#CCCO)cc31)[C@H]2c1ccc(OCCO)cc1 | 0.975
COc1ccc(C(=O)Nc2ccc(CN3C(=O)[C@@]4(O[C@@H](CCn5cc([C@H](O)c6ccccc6)nn5)[C@H]([Si](C)(C)c5ccc(OC)cc5)[C@H]4C)c4ccccc43)cc2)cc1 | 1.05
COc1ccc([Si](C)(C)[C@H]2[C@H](CCO)O[C@@]3(C(=O)N(Cc4ccc(N5C(=O)COc6ccccc65)cc4)c4ccccc43)[C@@H]2C)cc1 | 0.474
O=C1O[C@H](c2ccccc2)[C@H](c2ccccc2)N2[C@H]1[C@@H](C(=O)NC[C@H](O)c1ccccc1)[C@]1(C(=O)Nc3ccccc31)[C@H]2c1ccc(OCCO)cc1 | 1.21
COCCOC(=O)N1C(=O)[C@@]2(c3ccccc31)[C@H](c1ccc(O)cc1)N1[C@H](c3ccccc3)[C@H](c3ccccc3)OC(=O)[C@H]1[C@@H]2C(=O)NC[C@H](O)c1ccccc1 | 1.26
CCCC[C@@H]1C[C@H]1[C@@H](NC(=O)c1ccco1)c1ccc(C(=O)OC)cc1 | -0.216
CN1C(=O)C2C=CC(C(O)c3cc(C(F)(F)F)cc(C(F)(F)F)c3)N(N3CCCCC3)C2C1=O (configuration not stated) | 0.892
O=C1OCCC/C=C\[C@H]2OC34C=CCN(CCN5CCOCC5)C(=O)[C@H]3N(CCCO)C(=O)[C@@H]4C12 (some centres not stated) | 0.993
CCOC(=O)C=Cc1cc([N+](=O)[O-])ccc1O | 0.358
C=CCOC(=O)[C@H]1[C@@H]2C(=O)O[C@@H](c3ccccc3)[C@@H](c3ccccc3)N2[C@@H](c2ccc(OCCOC(=O)[C@H]3C[C@H]4C(=O)N[C@@H](CC(C)C)C(=O)N4[C@H]3c3ccc(O)cc3)cc2)[C@]12C(=O)Nc1ccc(I)cc12 | 1.34
C=CCNC(=O)[C@@H]1[C@H]2C(=O)O[C@H](c3ccccc3)[C@H](c3ccccc3)N2[C@H](c2ccccc2OCCO)[C@@]12C(=O)N(C(=O)OCCOC)c1ccc(C#CCNC(N)=O)cc12 | 0.958
CC(C)C(CO)N1C(=O)[C@@H]2[C@H]3C(=O)OCC=C[C@H]3OC23C=CCN(C(C)C)C(=O)[C@@H]13 (some centres not stated) | -0.677
CN(C)C(=O)[C@]1(Cc2ccccc2CN=[N+]=[N-])N=C(c2ccc(OCCCO)cc2)O[C@@H]1c1ccccc1CN=[N+]=[N-] | 1.27
CS(=O)(=O)CCOC(=O)C1=CC(CCCO)=CC(c2ccc(CN3CCCC3)cc2)N(Cc2cc3c(cc2Br)OCO3)C=C1C(=O)OCCS(C)(=O)=O (configuration not stated) | 1.25
O=C1NC(=O)C2C1C=CC(C(O)c1ccccc1)N2Nc1ccc(Cl)cc1Cl (configuration not stated) | 1.15
C=CCN1C(=O)[C@]2(O[C@H](CCO)[C@@H]([Si](C)(C)c3ccc(OC)cc3)[C@@H]2C)c2cc(N3CCCCC3=O)ccc21 | 1.24
O=C1O[C@H](c2ccccc2)[C@H](c2ccccc2)N2[C@H]1[C@@H](C(=O)O)[C@]1(C(=O)Nc3ccc(C#CCCO)cc31)[C@H]2c1ccc(O)cc1 | 0.708
CCOC(=O)C[C@H]1[C@H](OC(=O)c2cc3ccccc3oc2=O)[C@@H](NC(=O)C2CCCCC2)c2cc(OCCCO)ccc2N1C(=O)c1ccccc1 | 0.863
Cc1ccc(S[C@]2(C(=O)NC(C)C)CC(=O)N(Cc3ccccc3Cl)[C@@H]2c2ccc(CO)cc2I)cc1 | 1.02
COc1ccc([Si](C)(C)[C@@H]2[C@@H](CCO)O[C@]3(C(=O)N(Cc4ccc(N5C(=O)COc6ccccc65)cc4)c4ccccc43)[C@H]2C)cc1 | 1.17
O=C1NC(=O)C2C1C=CC(C(O)C(c1ccccc1)c1ccccc1)N2Nc1ccc(Cl)cc1Cl (configuration not stated) | 0.756
CC(=O)n1cc(C(O)C2C=CC3C(=O)N(C)C(=O)C3N2Nc2ccccc2)c2ccccc21 (configuration not stated) | 1.27
O=C(C1N=C(c2ccc(OCCCO)cc2)N(c2ccccc2)O1)N1CCOCC1 (configuration not stated) | 0.336
C=CCC(OC(C)=O)[C@@H]1[C@@H](N(Cc2ccc(-c3ccccc3)cc2)C(=O)Cc2ccc(F)cc2)c2cc(OCCCO)ccc2N1C(=O)c1ccc(-c2ccccc2)cc1 (some centres not stated) | -0.937
COc1ccc(CCNC(=O)[C@@]2(Sc3ccc(C)cc3)CC(=O)N(C3CCCCC3)[C@@H]2c2ccc(CO)cc2I)cc1 | 1.02
COC(=O)[C@@]1(Cc2ccc(F)cc2)[C@H]2c3cc(C(=O)N4CCCC4)n(Cc4ccc(C)o4)c3C[C@H]2CN1C(=O)c1ccccc1 | 1.14

----------
- experimental system: Concanavalin-A (Canavalia ensiformis) (UniProt P02866)
- Sequence (P02866 whole entry, looked up): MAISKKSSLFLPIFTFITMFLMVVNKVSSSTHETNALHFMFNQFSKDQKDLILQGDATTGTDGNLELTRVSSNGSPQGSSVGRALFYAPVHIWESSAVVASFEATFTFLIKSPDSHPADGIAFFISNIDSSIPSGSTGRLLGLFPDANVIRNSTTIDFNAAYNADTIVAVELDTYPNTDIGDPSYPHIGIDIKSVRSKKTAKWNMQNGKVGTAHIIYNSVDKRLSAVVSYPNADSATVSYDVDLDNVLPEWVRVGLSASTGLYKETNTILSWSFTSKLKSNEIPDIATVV
- assay summary: ConA small-molecule binders, primary screen, artefact control for SMM control protein annotation, biochemical, small-molecule microarray, Alexa647 label, 635 nm (AID 1127);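 also: z combines 667 nm emission intensity with signal-to-noise across three replicate slides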
- reported conditions: ConA-A647 binding fluorescence, higher = more signal

compound | composite z-score
C=CC[C@@]1(C(=O)N(C)C)N=C(c2ccc(OCCCO)cc2)O[C@@H]1c1ccccc1N=[N+]=[N-] | 1.18
C=CCC(OC(C)=O)[C@@H]1[C@@H](N(Cc2cccc3ccccc23)C(=O)c2ccc(-c3ccccc3)cc2)c2cc(OCCCO)ccc2N1C(=O)Cc1ccc(OC)cc1 (stereo partly specified) | 0.0866
[N-]=[N+]=Nc1ccccc1C[C@]1(C(=O)NCC(O)CO)N=C(c2ccc(OCCCO)cc2)O[C@H]1c1ccccc1N=[N+]=[N-] (stereo partly specified) | -0.899
COCCOC(=O)N1C(=O)[C@@]2(c3cc(C#CC4(O)CCCCCC4)ccc31)[C@H](c1ccc(O)cc1)N1[C@H](c3ccccc3)[C@H](c3ccccc3)OC(=O)[C@H]1[C@@H]2C(=O)Nc1nc2ccccc2s1 | 0.785
O=C1OCC=C[C@H]2OC34C=CCN(CCN5CCOCC5)C(=O)[C@H]3N(CCCO)C(=O)[C@@H]4[C@@H]12 (stereo partly specified) | 0.551
COc1cc2c(cc1OC)CN(C(=O)[C@@H]1[C@H]3C(=O)O[C@H](c4ccccc4)[C@H](c4ccccc4)N3[C@H](c3ccc(O)cc3)[C@@]13C(=O)Nc1ccc(C#CC4(O)CCCCCC4)cc13)CC2 | 1.16
